- experiment-summary: growth inhibitors of H69AR lung tumor, primary screen, human, duplicate replicates (AID 580);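 further: 100% = mean luminescence of untreated wells and 0% = no signal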
- assay-conditions: H69AR lung tumor cells viability, ATP luminescence, 72 h; at 10 µM; hits give low values
measured-metric: viability (%)
Field: numeric (%). Do not append units.

compound=c1ccc(Cc2ccc(OCCn3cncn3)cc2)cc1 measured_metric=viability result_number=95

Exercise: Item under review: O=C(Nc1ccc2snnc2c1)N1CCSCC1 . Reported viability?
Key: 98.9

Exercise: Item under review: CNC(=O)CSc1nnc(-c2cc3c(C)nn(-c4ccccc4)c3s2)n1C . Reported viability?
Key: 109

Exercise: Item under review: Cc1ccc(-c2noc(C3CCCN(C(=O)c4ccc(F)cc4F)C3)n2)cc1 (stereo not given) . Reported viability?
Key: 90
